These data points were gathered from patent US9504671B2.

test.details: solubility studies of COMPOUND A (UV spectrophotometry at 312 nm)
Format: physicochemical
test.settings: water; read-out: water solubility
result.type: solubility

Data request, read-out solubility, for `O=C1N(Cc2ccc(C(F)(F)F)o2)c2ccccc2[C@]12COc1cc3c(cc12)OCO3` < 5 µg/mL
